Each entry below carries its reported melting point.

compound: O=c1[nH]c(C(F)(F)F)nc2ccc(I)cc12
melting point: > 255 °C
//
compound: Cn1cc2c(O)cc(-c3ccc(Cl)cc3)nc2n1
melting point: 302 to 305 °C
//
compound: COc1ccc(-c2cc(=O)n(Cc3ccc(OC)c(F)c3)nc2-c2ccc(OC)cc2)cc1
melting point: 166 to 168 °C

Query: What does the record list as melting point for `COc1ccc(CCNC(=O)C2=C(C(=O)Nc3cc(OC4CCCC4)c(Cl)cc3F)CCCC2)cc1OC` ?
Response: 159 to 161 °C

Query: Please give the result for CC(=O)C1=CCC2C3CCC4CC(O)CCC4(C)C3CC(O)C12C (stereo not given) too.
Response: 203 to 205 °C

Query: What do you have for `CCCCCCCCCCCCCCCCCCOc1cc(N)cc([N+](=O)[O-])c1` ?
Response: 106 to 108 °C

###

Entries and their melting point

compound: CCN(CC)CCNC(=O)c1cc(Cl)c(N)cc1O
result: 134 to 136 °C
--
compound: C#Cc1ccc2c(c1)CCC2=O
result: 157 °C
--
compound: Cc1c(C(=O)Nc2ccc(N3CCC(N4CCC(=O)CC4)CC3)c(C#N)c2)cnn1-c1ccc(Cl)cc1
result: 213 °C

Query: I'd like to know its melting point. The compound in question is `COc1ccc(C=NO)cc1C`
Response: 70 to 72 °C

Query: Oc1cccc2c1CC(n1cc[nH]c1=S)CC2 (stereo not given) ?
Response: 274 to 276 °C

###

melting point for assorted compounds

Study these solved cases before continuing.
compound: O=C(c1ccc(Cl)cc1)c1cc([N+](=O)[O-])ccc1N1CCC(O)CC1
result: 142 °C
//
compound: Cc1nn(Cc2ccccc2)c(C)c1CC(=O)O
result: 119 to 121 °C
//
compound: CC(=O)Oc1cccc(-c2noc(C)n2)c1
result: 94 °C
//
compound: COc1cc(OC)c2c(=O)[nH]c(-c3ccc(O)c(CCO)c3)nc2c1
result: 249 to 250 °C
//
compound: NS(=O)(=O)c1ccc(/C(=C2\CCOC2=O)c2ccc(F)cc2)cc1
result: 202 °C
//
compound: O=C(O)CCC(Cc1ccccc1Br)(C(=O)C=Cc1ccc(Cl)cc1)c1ccccc1 (stereo not given)
result: 210 to 214 °C
//
compound: CCCCc1nc(C(C)(C)O)c(C(=O)OCC)n1Cc1ccc(-c2ccccc2C(=O)OC(C)(C)C)cc1
result: 92 to 93 °C
//
compound: Nc1cc(Sc2ccc3c(C(=O)Nc4cccc(OC(F)(F)F)c4)cccc3c2)ncn1
result: 197 to 199 °C

Query: Request the reported melting point associated with `CCc1noc(-c2ncc3[nH]c4cccc(OCc5ccccc5)c4c3c2COC)n1`
Response: 180 to 184 °C

###

Measured melting point accompanies every entry in the list below.

Below are worked cases with known answers.
compound: CC1CCN(CCCC(=O)c2ccc3c(c2)C(=O)c2cc(C(=O)CCCN4CCC(C)CC4)ccc2-3)CC1
result: 178 to 180 °C
--
compound: COc1ccc(NC(=O)C23CC4CC(CC(C4)C2)C3)cc1OC
result: 224 to 226 °C
--
compound: Oc1ccc2c(-c3ccccc3O)noc2c1
result: 164 to 166 °C

Query: Would you mind telling me what melting point value was observed for `CC(C)(C)OC(=O)N(CC=CCl)c1cc(OCc2ccccc2)c2ncccc2c1I` ?
Response: 115 to 135 °C

Query: What do you have for CCOC(=O)C1=C(N)NC(C)=C(C(=O)OC)C1c1cc([N+](=O)[O-])ccc1Cl (stereo not given) ?
Response: 124 °C

###

Each entry below carries its recorded melting point.

// worked examples, melting point included
compound: COc1ccnc(CCc2nc3cc(Br)cnc3[nH]2)c1
assay_metric: melting point
result: 207 to 209 °C

compound: COC(=O)c1ccc(NC2COC(=O)C2)cc1 (stereo not given)
assay_metric: melting point
result: 136 to 138 °C

compound: CC(C)Oc1ccc(OCc2ccccc2)cc1-c1nc2cc(CNCC(=O)O)cnc2[nH]1
assay_metric: melting point
result: 182 to 184 °C

compound: O=C(Cc1cccc(Cl)c1)c1ccn(S(=O)(=O)c2ccccc2)c1
assay_metric: melting point
result: 106 to 108 °C

compound: CC(O)c1cc2cc(OCC(=O)O)c(Cl)c(Cl)c2s1 (stereo not given)
assay_metric: melting point
result: 173 to 175 °C

compound: CCCc1ccc(CCCOc2c(C)cc(-c3nnn(C)n3)cc2C)nn1
assay_metric: melting point
result: 78 to 80 °C

compound: C[N+](C)([O-])CC#CC1=Cc2ccccc2Sc2ccc(Cl)cc21
assay_metric: melting point
result: 68 to 69 °C

compound: CC1=C(C(=O)OCCN(C)Cc2ccccc2)C(c2cccc([N+](=O)[O-])c2)c2c(N)nc(N)nc2N1 (stereo not given)
assay_metric: melting point
result: 162 °C

Query: Recorded melting point for `CC(C)c1nc(CN)n(C)c1Sc1cccc(Cl)c1` , please?
Response: 99 to 101 °C

Query: Record: `CC(=O)c1ccc(Nc2cccc(-c3cnc(N)nc3)c2)c(N)c1`
Response: 228 to 230 °C

###

assay_metric: melting point

The following compounds have reported results that may help.
compound: O=C(CC(NC(=O)OCc1ccccc1)c1ccccc1)Nc1n[nH]c(=S)s1 (centres undefined)
assay_metric: melting point
result: 222 to 223 °C
//
compound: N#Cc1ccc2c(c1)COC2c1ccc(F)cc1 (centres undefined)
assay_metric: melting point
result: 96 to 98 °C
//
compound: CC(C)c1ccc(S(=O)(=O)Nc2ccc(OC(F)(F)F)cc2I)cc1
assay_metric: melting point
result: 72 °C
//
compound: CCCN(Cc1ccc(-c2ccccc2-c2nnn[nH]2)cc1)c1nc(OCc2ccccc2)ccc1C(=O)O
assay_metric: melting point
result: 68 to 82 °C
//
compound: COc1cccc(NC(=O)NC2CN(C3CCCCC3)c3ccccc3N(CC(=O)C(C)(C)C)C2=O)c1 (centres undefined)
assay_metric: melting point
result: 234 to 235 °C
//
compound: CCC(=O)C1=C(O)CC(c2cccc(Oc3ccc(S(C)(=O)=O)cc3)c2)CC1=O (centres undefined)
assay_metric: melting point
result: 136 to 138 °C
//
compound: CCN1c2ncc(CCc3ccnc(C(=O)OC)c3)cc2C(=O)N(C)c2ccc(Cl)nc21
assay_metric: melting point
result: 149 °C
//
compound: COC(=O)c1ccccc1OCC(O)CNCCNC(=O)C(C)C (centres undefined)
assay_metric: melting point
result: 128 to 129 °C

Query: Reported melting point for `N#CN=C1CCCN1C1=CC(CF)(CF)Oc2ccc(C(F)(F)C(F)(F)F)cc21` : what is it?
Response: 207 to 210 °C

Query: Same question for O=C(CC(Cc1cccc2ccccc12)C(=O)O)NCCc1ccccc1 (centres undefined) please.
Response: 131 to 135 °C

###

assay_metric: melting point

Some solved entries appear below for comparison.
compound: COc1cc(OC)c2c(=O)cc(-c3ccc(C#N)cc3)oc2c1C1CCN(C)C1CO (stereo not given)
assay_metric: melting point
result: 214 to 216 °C
--
compound: Cc1c(N2CC[C@@H](C3(N)CC3)C2)ccc2c(=O)c(C(=O)O)cn(C3CC3)c12
assay_metric: melting point
result: 230 to 233 °C
--
compound: CCCNCCOc1ccc(NC(=O)c2n[nH]c3c2C(=O)CCC3)cn1
assay_metric: melting point
result: 120 °C

Query: # query: melting point of entry `CCNc1cncc(S(=O)(=O)N(CC)CC)c1`
Response: 58 to 60 °C

Query: Then this compound: CCCCC1(CCCC)NC(c2nc(-c3ccccc3)cs2)Cc2c1[nH]c1ccccc21 (stereo not given)
Response: 134 to 136 °C

###

Consider the following compounds and their measured melting point readings.

// below: answered compounds
compound: Oc1cc(Cl)c2nc(-c3ccc(O)c(F)c3)cc(Br)c2c1
result: 184 to 186 °C
--
compound: Cc1cc(C=O)c(OCCCCCCBr)c(C=O)c1
result: 46 °C

Query: Which melting point value is on record for `Nc1ncc(C(=O)CBr)cc1Cl` ?
Response: 134 °C

Query: Also, `CS(=O)(=O)c1c(C(=O)c2cnoc2C2CC2)ccc(Br)c1F` please.
Response: 144 to 145 °C

Query: Next record, please: Cc1ccc(C2c3c(C)c(N4CCN(c5ccc(C(F)(F)F)cc5)CC4)c(C)c(C)c3OC2(C)C)cc1 (stereo unspecified)
Response: 180 to 181 °C

Query: Request: `CSc1cc(=O)c2ccc(F)cc2s1`
Response: 120 to 121 °C

Query: Lookup `CCOC(=O)c1cccn2c(C=O)c(-c3ccccc3)nc12`
Response: 139 °C

###

assay_metric: melting point

compound: COc1ccccc1C(=O)Nc1cc(C(=O)NCc2ccccc2)ccn1
melting point: 205 to 207 °C

Query: Quick one: melting point of `CC(C)(C)c1cc(CC(Cc2cc(C(C)(C)C)c(O)c(C(C)(C)C)c2)[N+](=O)[O-])cc(C(C)(C)C)c1O` ?
Response: 161 to 165 °C

Query: Field entry: `Cc1onc(-c2ccccc2)c1C(=O)NCCCN1CCN(c2ccc(F)cc2OCC(F)(F)F)CC1`
Response: 112 to 135 °C

Query: Next entry: Cc1ccc(N2N=C3c4cc(C(=O)CCl)sc4CCC3CC2=O)cc1 (stereo not drawn)
Response: 169 to 171 °C

Query: Input CC(C)(C)[Si](C)(C)OC1CN(S(C)(=O)=O)Cc2nc3c(N)nc4ccccc4c3n2C1 (stereo not drawn)
Response: 256 to 258 °C

Query: Then what about the compound `CCOP(=O)(Cc1ccc(NC(=O)c2sc(SC)c3c2CCc2sc(CC)nc2-3)cc1)OCC` ?
Response: 179 to 180 °C

Query: Same again, this time with `O=C(O)Cc1c(C(=O)c2ccccc2)[nH]c2c(Cl)cccc12`
Response: 190 to 193 °C

Query: Again, but for O=C1CCC(N2Cc3c(OCc4cccc(CN5CCC(c6ccc(Cl)cc6)CC5)c4)cccc3C2=O)C(=O)N1 (stereo not drawn)
Response: 180 to 182 °C
